# System: fungi
# Assay Notes: Fungicidal activity overall (tests of Examples 1 and 2, Table I)
# Assay type: in vivo

- Molecule: "CCCN(CCC)Cc1ccc([N+](=O)[O-])cc1 [Compound 3, N,N-dipropyl-4-nitro-benzylamine, reference compound]"
  Study System: "fungi"
  fungicidal activity (in words): "no fungicidal activity"
- Molecule: "CCCN(CCC)Cc1cccc(F)c1 [Compound 4, reference compound]"
  Study System: "fungi"
  fungicidal activity (in words): "no fungicidal activity"
